All values here come from the supplement of paper PMC10126150.

- System: ATP;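 also: ATP exposure 15 min at 22 °C before imaging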
- ASSAY PROCEDURE: switch fluorescence ratio, 500 uM ATP over buffer (Cy3 cluster intensity, sum of 5 cycles each) (fold (ratio)); higher = stronger signal-on switching upon ATP binding; sequences stand for … in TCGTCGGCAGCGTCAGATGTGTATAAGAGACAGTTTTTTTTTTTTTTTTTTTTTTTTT…TC
- CONDITIONS USED: aptamer strand: ATP DNA aptamer (quencher-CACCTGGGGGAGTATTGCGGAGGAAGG + anchor), 100 nM annealed; ATP concentration: 500 uM
I'd appreciate it if you could supply switch fluorescence ratio values for the items below.
Answers are plain numbers.

{"CONSTRUCT SEQUENCE": "CCGCAGGGGT", "switch fluorescence ratio": 3.1}
{"CONSTRUCT SEQUENCE": "TTTTACCCAG", "switch fluorescence ratio": 1.11}

Items follow; give switch fluorescence ratio for each.
1. AAGGTTTAGT
2. ACCAAATAAG
3. GCATTGTTTT
4. TAACCGATAT
5. TGAAGCTGGG
6. CTAGTCGCCG
7. CCGTCTAATA

a:
[1, 1.02, 0.96, 0.994, 1.07, 1, 1.42]

Items follow; give switch fluorescence ratio for each.
1. CGTGTAGGAG
2. GGGGGTGGTA
3. TAGACTTGTT
4. AGGGTTTGGG
5. GCATGAGTGC

a:
[0.993, 0.99, 0.996, 1.01, 1.07]

====

I'd appreciate it if you could supply switch fluorescence ratio values for the items below.
- Tested on: ATP;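 also: ATP exposure 15 min at 22 °C before imaging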
- ASSAY PROCEDURE: switch fluorescence ratio, 500 uM ATP over buffer (Cy3 cluster intensity, sum of 5 cycles each) (fold (ratio)); higher = stronger signal-on switching upon ATP binding; sequences stand for … in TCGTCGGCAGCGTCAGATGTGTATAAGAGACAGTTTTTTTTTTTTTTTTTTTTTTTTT…TC
- CONDITIONS USED: aptamer strand: ATP DNA aptamer (quencher-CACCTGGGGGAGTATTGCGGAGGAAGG + anchor), 100 nM annealed; ATP concentration: 500 uM

See these solved cases before continuing.
{"CONSTRUCT SEQUENCE": "CCGTTTGTTT", "switch fluorescence ratio": 1}
{"CONSTRUCT SEQUENCE": "TATATAGGGG", "switch fluorescence ratio": 1}
{"CONSTRUCT SEQUENCE": "TCAGAGGCGT", "switch fluorescence ratio": 0.996}

Items follow; give switch fluorescence ratio for each.
1. TTTTTCCCAT
2. ATTATGGGTC
3. ATGGGGTGGC
4. TGGGGCACAT
5. AGGGTACAGT
6. ATCAAGGTTG
7. GCGCGGGGGG
8. GGGTGAGGCA

a:
1: 1.03; 2: 1; 3: 0.998; 4: 1.02; 5: 1.04; 6: 0.978; 7: 1.02; 8: 0.999

====

I'd appreciate it if you could supply switch fluorescence ratio values for the items below.
- System: ATP;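 also: ATP exposure 15 min at 22 °C before imaging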
- ASSAY PROCEDURE: switch fluorescence ratio, 500 uM ATP over buffer (Cy3 cluster intensity, sum of 5 cycles each) (fold (ratio)); higher = stronger signal-on switching upon ATP binding; sequences stand for … in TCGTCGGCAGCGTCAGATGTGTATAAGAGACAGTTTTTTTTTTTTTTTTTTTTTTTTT…TC
- CONDITIONS USED: aptamer strand: ATP DNA aptamer (quencher-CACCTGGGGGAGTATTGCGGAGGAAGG + anchor), 100 nM annealed; ATP concentration: 500 uM

See these solved cases before continuing.
{"CONSTRUCT SEQUENCE": "CTAAATGGGA", "switch fluorescence ratio": 1.01}
{"CONSTRUCT SEQUENCE": "GCCCCGGGGG", "switch fluorescence ratio": 1.1}
{"CONSTRUCT SEQUENCE": "CAAAGTAAAA", "switch fluorescence ratio": 1.04}

Items follow; give switch fluorescence ratio for each.
1. CAAACGCGCG
2. GCTGACGGTT
3. CCAGGTCGAC

a:
[0.997, 0.997, 1.02]

Items follow; give switch fluorescence ratio for each.
1. GTGGAAATGG
2. AGAAGGTGGG
3. TTGCGGGTTT
4. CGGAGCTACG
5. CTGGAGGGA

a:
1.01
1.01
1.29
1.49
1
